tested on: TK-10 renal; assay: NCI tumour cell line growth inhibition, 48 h
property: TGI

molecule | target or test system | TGI
CCOc1ccc2c(c1)[n+]([O-])c(-c1ccc(Br)cc1)c(N)[n+]2[O-] | TK-10 renal | > 100 µM
CCCCCCCCCCCCc1ccc(S(=O)(=O)O)cc1.[Zn+2] | TK-10 renal | > 100 µM

Prompt line: Entry N#CC1CCCCOCCOCCOCCOCCOCCCCCC1=O (stereo not given) has what TGI?
Response line: > 100 µM

Prompt line: O=c1[nH]c2ccccc2c(O)c1/C=N/C(=S)NCc1ccccc1 ?
Response line: > 100 µM

Prompt line: CS(=O)(=O)NNS(=O)(=O)c1ccccc1 ?
Response line: > 100 µM

Prompt line: CCOC(=O)c1c(C)n(Cc2ccccc2)c2c1cc(O)c1[nH]c(Cc3ccccc3)nc12 ?
Response line: 54.5 µM

Prompt line: C=C1C(=O)O[C@H]2[C@H]3O[C@@H](C[C@@H]12)[C@@]1(C)CC[C@H](O1)[C@H](C)CCC[C@H]3C ?
Response line: 2.98 µM
